tested on: Colo205 tumor cell lines; test: Celltiter Glo growth inhibition assay (cellular Method B); assay type: cell-based; conditions: Homo sapiens, COLO 205, 72 h, Table 3, Method B Celltiter Glo, 3 days
Quantity measured: IC50

// known answers, use as guide
1) O=C(Cc1cccs1)Nc1cc(-c2nn3ccccc3c2-c2ccnc(Nc3cccc(CN4CCCC4)c3)n2)ccc1F [Example 61]: 100 to 1000 nM
2) Cc1ccc(-c2nn3ccccc3c2-c2ccnc(Nc3cccc(OCCN(C)C)c3)n2)cc1NC(=O)Cc1cccs1 [Example 58]: 100 to 1000 nM
3) Cc1ccc(-c2nn3ccccc3c2-c2ccnc(Nc3cc(OCCN(C)C)ccc3C)n2)cc1NC(=O)Cc1cccs1 [Example 57]: > 1000 nM

# query: IC50 of entry Cc1ncoc1-c1cccc(Nc2nccc(-c3c(-c4cccc(NC(=O)Cc5cccs5)c4)nn4ccccc34)n2)c1 [Example 52]
100 to 1000 nM

# query: IC50 of entry Cc1ccc(-c2nn3ccccc3c2-c2ccnc(Nc3ccc4c(c3)CN(C)CC4)n2)cc1NC(=O)Cc1cccs1 [Example 59]
> 1000 nM

----------
system: BT474 and HN5 tumor cell lines; assay: Celltiter Glo growth inhibition assay (cellular Method B); format: cell-based; settings: Homo sapiens, BT-474, 72 h; Table 2, Method B Celltiter Glo, 3 days; class over BT474 and HN5;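 also: class counts the more potent of the two cell lines (BT474 or HN5)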
pIC50: −log10 of the molar value.
Quantity measured: pIC50

// known answers, use as guide
1. O=C(Cc1ccncc1)Nc1cccc(-c2nn3ccccc3c2-c2ccnc(Nc3cccc(-c4cnco4)c3)n2)c1: < 6.00
2. O=C(Cc1cccs1)Nc1cccc(-c2nn3cc(F)ccc3c2-c2ccnc(Nc3cccc(F)c3)n2)c1: < 6.00
3. COc1ccc(Nc2nccc(-c3c(-c4cccc(NC(=O)Cc5cccs5)c4)nn4ccccc34)n2)cc1N1CCN(CCS(C)(=O)=O)CC1: 6.00 to 7.00

# query: pIC50 of entry CN(C)C1Cc2ccc(Nc3nccc(-c4c(-c5ccc(F)c(NC(=O)Cc6cccs6)c5)nn5ccccc45)n3)cc2C1 (stereo not shown)
> 7.00

# query: pIC50 of entry "CN1CCc2ccc(Nc3nccc(-c4c(-c5cccc(NC(=O)Cc6cccs6)c5)nn5cc(F)ccc45)n3)cc2C1"
6.00 to 7.00

----------
Recorded pIC50 for the following compounds
system: Colo205 tumor cell lines; test: Celltiter Glo growth inhibition assay (cellular Method B); assay type: cell-based; conditions: Homo sapiens, COLO 205, 72 h, Table 3, Method B Celltiter Glo, 3 days
pIC50: −log10 of the molar value.

Can you look up pIC50 on Colo205 tumor cell lines for "O=C(Cc1ccncc1)Nc1cccc(-c2nn3ccccc3c2-c2ccnc(Nc3cccc(-c4cnco4)c3)n2)c1" ?
< 6.00

----------
system: BT474 and HN5 tumor cell lines; experiment: Celltiter Glo growth inhibition assay (cellular Method B); assay type: cell-based; details: Homo sapiens, BT-474, 72 h; Table 2, Method B Celltiter Glo, 3 days; class over BT474 and HN5;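 also: class counts the more potent of the two cell lines (BT474 or HN5)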
pIC50: −log10 of the molar value.
Quantity measured: pIC50

// known answers, use as guide
1) Cc1ccc(-c2nn3ccccc3c2-c2ccnc(Nc3cc(OCCN(C)C)ccc3C)n2)cc1NC(=O)Cc1cccs1: < 6.00
2) O=C(Cc1ccsc1)Nc1cccc(-c2nn3ccccc3c2-c2ccnc(Nc3cccc(-c4cnco4)c3)n2)c1: 6.00 to 7.00
3) CN(C)CCOc1cccc(Nc2nccc(-c3c(-c4cccc(NC(=O)Cc5cccs5)c4)nn4cccc(F)c34)n2)c1: < 6.00

In the following, a different compound is considered.
# query: pIC50 of entry "NCc1cccc(Nc2nccc(-c3c(-c4cccc(NC(=O)Cc5cccs5)c4)nn4ccccc34)n2)c1"
6.00 to 7.00

----------
system: Colo205 tumor cell lines; assay: Celltiter Glo growth inhibition assay (cellular Method B); format: cell-based; details: Homo sapiens, COLO 205, 72 h, Table 3, Method B Celltiter Glo, 3 days
Quantity measured: IC50

// known answers, use as guide
1) O=C(Cc1cccs1)Nc1cccc(-c2nn3cc(F)ccc3c2-c2ccnc(Nc3cccc(F)c3)n2)c1 [Example 33]: > 1000 nM
2) CN1CCc2ccc(Nc3nccc(-c4c(-c5cccc(NC(=O)Cc6cccs6)c5)nn5cccc(F)c45)n3)cc2C1 [Example 30]: > 1000 nM
3) CN1CCC(N(C)CCOc2cc(Nc3nccc(-c4c(-c5cccc(NC(=O)Cc6cccs6)c5)nn5ccccc45)n3)ccc2Cl)C1 (centres unmarked) [Example 46]: > 1000 nM

# query: IC50 of entry O=C(Cc1cccnc1)Nc1cccc(-c2nn3ccccc3c2-c2ccnc(Nc3cccc(-c4cnco4)c3)n2)c1 [Example 21]
> 1000 nM

# query: IC50 of entry Cc1cc(CC(=O)Nc2cccc(-c3nn4ccccc4c3-c3ccnc(Nc4cccc(-c5cnco5)c4)n3)c2)on1 [Example 19]
> 1000 nM

# query: IC50 of entry CN1CCc2ccc(Nc3nccc(-c4c(-c5cccc(NC(=O)Cc6cccs6)c5)nn5cc(F)ccc45)n3)cc2C1 [Example 35]
> 1000 nM

# query: IC50 of entry Cc1ccc(OCCN(C)C)cc1Nc1nccc(-c2c(-c3ccc(F)c(NC(=O)Cc4cccs4)c3)nn3ccccc23)n1 [Example 62]
100 to 1000 nM

# query: IC50 of entry CN(C)Cc1cccc(Nc2nccc(-c3c(-c4cccc(NC(=O)Cc5cccs5)c4)nn4ccccc34)n2)c1 [Example 7]
100 to 1000 nM

# query: IC50 of entry CS(=O)(=O)CCNCc1cccc(Nc2nccc(-c3c(-c4cccc(NC(=O)Cc5cccs5)c4)nn4ccccc34)n2)c1 [Example 41]
100 to 1000 nM

----------
Recorded pIC50 for the following compounds
system: BT474 and HN5 tumor cell lines; assay: Celltiter Glo growth inhibition assay (cellular Method B); assay type: cell-based; conditions: Homo sapiens, BT-474, 72 h; Table 2, Method B Celltiter Glo, 3 days; class over BT474 and HN5;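 also: class counts the more potent of the two cell lines (BT474 or HN5)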
pIC50: −log10 of the molar value.

1) O=C(Cc1c[nH]c2ccccc12)Nc1cccc(-c2nn3ccccc3c2-c2ccnc(Nc3cccc(-c4cnco4)c3)n2)c1: 6.00 to 7.00

# query: pIC50 of entry "O=C(Cc1cccs1)Nc1cccc(-c2nn3cccc(F)c3c2-c2ccnc(Nc3cccc(F)c3)n2)c1"
< 6.00

# query: pIC50 of entry "CN(C)Cc1cccc(Nc2nccc(-c3c(-c4ccc(F)c(NC(=O)Cc5cccs5)c4)nn4ccccc34)n2)c1"
6.00 to 7.00

# query: pIC50 of entry "CN(C)CCNCc1cccc(Nc2nccc(-c3c(-c4cccc(NC(=O)Cc5cccs5)c4)nn4ccccc34)n2)c1"
6.00 to 7.00

----------
Tested on: Colo205 tumor cell lines
Experiment: Celltiter Glo growth inhibition assay (cellular Method B)
Format: cell-based
Details: Homo sapiens, COLO 205, 72 h, Table 3, Method B Celltiter Glo, 3 days
Protocol: Human breast tumor cells (BT474) were cultured in RPMI, (Invitrogen, 22400) containing 10% fetal bovine serum (FBS). Human head and neck tumor cells (HN5) were cultured in low glucose DMEM (Invitrogen, 12320) containing 10% FBS. […] Plates were incubated without shaking for 30 more min and read in a luminometer with an integration time of 0.5 seconds per well. Percent inhibition of cell growth was calculated relative to vehicle treated control wells. […]
Quantity measured: IC50

1) O=C(Cc1c(F)cccc1F)Nc1cccc(-c2nn3ccccc3c2-c2ccnc(Nc3cccc(-c4cnco4)c3)n2)c1: 100 to 1000 nM

# query: IC50 of entry "Cc1ccc(-c2nn3ccccc3c2-c2ccnc(Nc3cccc(CN4CCCC4)c3)n2)cc1NC(=O)Cc1cccs1"
> 1000 nM

# query: IC50 of entry "COc1ccc(-c2nn3ccccc3c2-c2ccnc(Nc3ccc4c(c3)CN(C)CC4)n2)cc1NC(=O)Cc1cccs1"
100 to 1000 nM

----------
tested on: Colo205 tumor cell lines; assay: Celltiter Glo growth inhibition assay (cellular Method B); assay type: cell-based; settings: Homo sapiens, COLO 205, 72 h, Table 3, Method B Celltiter Glo, 3 days
pIC50: −log10 of the molar value.
Recorded pIC50 for the following compounds

1) NCc1cccc(Nc2nccc(-c3c(-c4cccc(NC(=O)Cc5cccs5)c4)nn4ccccc34)n2)c1 [Example 42]: < 6.00

# query: pIC50 of entry CN(C)Cc1cccc(Nc2nccc(-c3c(-c4ccc(F)c(NC(=O)Cc5cccs5)c4)nn4ccccc34)n2)c1 [Example 36]
6.00 to 7.00

# query: pIC50 of entry O=C(Cc1cccs1)Nc1cccc(-c2nn3cccc(F)c3c2-c2ccnc(Nc3cccc(F)c3)n2)c1 [Example 32]
< 6.00

# query: pIC50 of entry COc1ccc(-c2nn3ccccc3c2-c2ccnc(Nc3ccc4c(c3)CC(N(C)C)C4)n2)cc1NC(=O)Cc1cccs1 (centres unmarked) [Example 48]
6.00 to 7.00

# query: pIC50 of entry CN(C)CCOc1cccc(Nc2nccc(-c3c(-c4ccc(F)c(NC(=O)Cc5cccs5)c4)nn4ccccc34)n2)c1 [Example 38]
6.00 to 7.00
